The reported measurements were obtained from patent US20240209086A1.

Collected IFNy Concentration pg/ml, Day 6, IS values appear next to each entry.
# Measurement Target: canine CD3 on canine T cells (canine PBMC) (canine, UniProt P27597 22-202)
# Sequence (P27597 22-202 limits assumed, chain 1 of 3): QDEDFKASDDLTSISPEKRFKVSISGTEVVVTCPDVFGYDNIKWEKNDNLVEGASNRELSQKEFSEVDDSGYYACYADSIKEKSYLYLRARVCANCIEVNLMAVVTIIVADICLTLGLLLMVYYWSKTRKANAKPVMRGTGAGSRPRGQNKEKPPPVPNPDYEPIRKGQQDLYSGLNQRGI
# Sequence (chain, as listed by the source limits assumed, chain 2 of 3): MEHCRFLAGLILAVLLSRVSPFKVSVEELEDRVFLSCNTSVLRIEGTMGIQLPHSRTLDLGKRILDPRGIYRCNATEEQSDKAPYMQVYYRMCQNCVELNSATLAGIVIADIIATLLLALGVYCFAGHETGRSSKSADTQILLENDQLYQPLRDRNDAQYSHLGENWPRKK
# Sequence (chain, as listed by the source limits assumed, chain 3 of 3): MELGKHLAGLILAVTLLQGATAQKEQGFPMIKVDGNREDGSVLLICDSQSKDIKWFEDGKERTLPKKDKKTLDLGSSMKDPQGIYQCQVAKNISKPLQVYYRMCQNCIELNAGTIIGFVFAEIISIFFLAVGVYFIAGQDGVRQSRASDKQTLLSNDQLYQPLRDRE
# Test Name: cell-based or functional assay
Property: IFNy Concentration pg/ml, Day 6, IS (pg/mL)

binder="PMX195 (monospecific anti-canine CD3, canine IgG-B effector function deficient Fc) (antibody, V domains shown) VH: EVQLVESGGDLVKPAGSLRLSCMASGFTFSSYSMSWVRQAPEKGLQLVAGINGDGSTTYYTDAVKGRFTISRDNAKNTVYLQMNNLRVEDSAMYYCAKGAGTGDYWGQGTLVTVSS VL: SYELTQPPSLNVTLRETAHITCGGDRIGSRYVQWIQQNPGQAPVVVIYKDSNRPTGIPERFSGANSGNTATLTISGALAEDEADYYCQVGDSGNWVFGGGTQLTVL" value_observed=63.9
binder="PMX181 (monospecific anti-canine CD3, canine IgG-B effector function deficient Fc) (antibody, V domains shown) VH: ELTLQESGPGLVKPSQTLSLTCIVSGGSVTNNYYWTWIRQRPGRGLEWMGYWTGFTNYNPAFQGRISIIANTAKKQLSLQLSSLTTEDTAVYYCARRAIPTYFDYWGQGTLVTVSS VL: SYVLTQLPSKNVTLKQPAHITCGGDNIGSRSVHWYQQKLGQAPVLIIYYDSSRPTGIPERFSGANSGNTATLTISGALAEDEADYYCQVWDSSASVFGGGTHLTVL" value_observed=33.1
binder="PMX176 (monospecific anti-canine CD3, canine IgG-B effector function deficient Fc) (antibody, V domains shown) VH: EVQLVESGGDLVKPGGSLRLSCVASGFTFSSYHMSWVRQAPGKGLQWVAYINSAGSTTSYTDAVQGRFTISRDNAKNTLYLQMNSLRAEDTAVYYCASEWIFMPWGQGSLVTVSS VL: SYVLTQLPSKNVTLKQPAHITCGGDNIGSKSVHWYQQKLGQAPVLIIYYDSSRPTGIPERFSGANSGNTATLTISGALAEDEADYYCQVWDSSAKARVFGEGTQLTVL" value_observed=30.3
